B1: PhoQ; a variant is named by its letters at X, in order, P23837 (parent)
chain: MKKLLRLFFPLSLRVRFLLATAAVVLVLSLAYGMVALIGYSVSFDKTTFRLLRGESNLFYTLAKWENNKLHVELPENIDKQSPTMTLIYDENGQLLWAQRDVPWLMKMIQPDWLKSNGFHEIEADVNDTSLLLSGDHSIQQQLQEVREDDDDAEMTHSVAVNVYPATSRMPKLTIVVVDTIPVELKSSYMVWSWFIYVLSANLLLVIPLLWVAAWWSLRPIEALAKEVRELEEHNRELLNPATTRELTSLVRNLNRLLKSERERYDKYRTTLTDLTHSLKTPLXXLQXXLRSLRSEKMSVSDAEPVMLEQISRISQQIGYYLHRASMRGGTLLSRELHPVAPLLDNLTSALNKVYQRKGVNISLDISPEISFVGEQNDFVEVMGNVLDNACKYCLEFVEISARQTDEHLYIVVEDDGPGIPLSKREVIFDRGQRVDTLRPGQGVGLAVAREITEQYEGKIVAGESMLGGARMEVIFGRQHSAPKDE

Variants of: B1
Assay: enrichment ratio after two sorts for PhoP signalling (ratio (wild type AVST 3.29)); higher = more functional
Conditions: with PhoP (E. coli)
In all, about 140,000 sequences were measured (“enrichment ratio after two sorts for PhoP signalling”: median about 0, highest 2% from about 11 on). The entries come from a sample that favours the highest values as a whole.
Known enrichment ratio of a selection of variants

[[record]]
mutant_label = "AMTE"
result = 15.1

[[record]]
mutant_label = "AMCL"
result = 15.7

[[record]]
mutant_label = "ARYC"
result = "≤ 0.25"

[[record]]
mutant_label = "TAKH"
result = "≤ 0.25"

[[record]]
mutant_label = "TANH"
result = "≤ 0.25"


Exercise: GET /values?readout=enrichment ratio&item= KASH
Key: ≤ 0.25

Exercise: And for AITE ?
Key: ≤ 0.25

Exercise: Quick one: QKPR
Key: ≤ 0.25

Exercise: // next record HQWG
Key: ≤ 0.25

Exercise: Then YQKV ?
Key: ≤ 0.25

Exercise: Ok, now SLVL
Key: 1.22

Exercise: Would you kindly repeat that for DHNH ?
Key: ≤ 0.25

Exercise: For NFGC then?
Key: ≤ 0.25

Exercise: Check VCHE too.
Key: ≤ 0.25

Exercise: Now consider AMNL .
Key: 3.05
